SYSTEM UNDER TEST: IL-17RA/IL17RC dimerization induced by IL-17A (Homo sapiens)
Sequence (Q16552 24-155): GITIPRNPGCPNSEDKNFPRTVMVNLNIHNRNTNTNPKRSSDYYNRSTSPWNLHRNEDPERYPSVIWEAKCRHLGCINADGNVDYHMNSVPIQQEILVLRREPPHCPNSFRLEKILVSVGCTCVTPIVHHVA
TEST SUMMARY: IL-17RA/IL17RC dimerization assay in response to IL-17A (PathHunter Cytokine Receptor Assay)
Assay type: cell-based
CONDITION DETAILS: IL-17A at EC80; read-out: IC50 in IL-17RA/IL7RC dimerization assay
pIC50: −log10 of the molar value. Residues, ends and D or L forms follow the SMILES beside them.
Parameter: pIC50. Scope: all listed entries.

The following compounds have reported results that may help.
>  <COMPOUND>
CC[C@H](C)[C@H](NC(C)=O)C(=O)N[C@@H](Cc1c[nH]cn1)C(=O)N[C@H](C(=O)N[C@H](C(=O)N[C@H](C(=O)N1CCC[C@H]1C(=O)N[C@@H](C)C(=O)N[C@@H](CC(=O)O)C(=O)N[C@@H](CC(C)C)C(=O)N[C@@H](Cc1c[nH]cn1)C(=O)N[C@@H](CC(=O)O)C(=O)N[C@@H](Cc1c[nH]c2ccccc12)C(=O)N[C@H](C(=O)N[C@@H](CC(N)=O)C(=O)N[C@@H](CCCCN)C(N)=O)[C@@H](C)CC)[C@@H](C)CC)[C@@H](C)O)C(C)C [SEQ ID NO: 206] (Ac-IHVTIPADLHDWINK-NH2)

>  <SYSTEM UNDER TEST>
IL-17RA/IL17RC dimerization induced by IL-17A (Homo sapiens)

>  <ENDPOINT RESULT>
> 5.00

$$$$
>  <COMPOUND>
CC[C@H](C)[C@H](NC(C)=O)C(=O)N[C@@H](Cc1c[nH]cn1)C(=O)N[C@H](C(=O)N[C@H](C(=O)N[C@H](C(=O)N1CCC[C@H]1C(=O)N[C@@H](C)C(=O)N[C@@H](CC(=O)O)C(=O)N1CCC[C@H]1C(=O)N[C@@H](Cc1c[nH]c2ccccc12)C(=O)N[C@@H](CC(=O)O)C(=O)N[C@@H](Cc1c[nH]c2ccccc12)C(=O)N[C@H](C(=O)N[C@@H](CC(N)=O)C(=O)N[C@@H](CCCCN)C(N)=O)[C@@H](C)CC)[C@@H](C)CC)[C@@H](C)O)C(C)C [SEQ ID NO: 203] (Ac-IHVTIPADPWDWINK-NH2)

>  <SYSTEM UNDER TEST>
IL-17RA/IL17RC dimerization induced by IL-17A (Homo sapiens)

>  <ENDPOINT RESULT>
> 5.00

$$$$
>  <COMPOUND>
CC[C@H](C)[C@H](NC(C)=O)C(=O)N[C@@H](Cc1c[nH]cn1)C(=O)N[C@H](C(=O)N[C@H](C(=O)N[C@H](C(=O)N1CCC[C@H]1C(=O)N[C@@H](C)C(=O)N[C@@H](CC(=O)O)C(=O)N[C@@H](CC(C)C)C(=O)N[C@@H](Cc1c[nH]c2ccccc12)C(=O)N[C@@H](CC(=O)O)C(=O)N[C@@H](Cc1c[nH]c2ccccc12)C(=O)N[C@@H](Cc1ccccc1)C(=O)N[C@@H](CC(N)=O)C(=O)N[C@@H](CCCCN)C(N)=O)[C@@H](C)CC)[C@@H](C)O)C(C)C [SEQ ID NO: 218] (Ac-IHVTIPADLWDWFNK-NH2)

>  <SYSTEM UNDER TEST>
IL-17RA/IL17RC dimerization induced by IL-17A (Homo sapiens)

>  <ENDPOINT RESULT>
> 5.00

$$$$

Lab note: next compound to report on.
Req: What does the data say about its pIC50? Entry: CC(=O)N[C@H](C(=O)N[C@@H](Cc1c[nH]cn1)C(=O)N[C@@H](Cc1ccccc1)C(=O)N[C@@H](CCC(N)=O)C(=O)N[C@@H](Cc1ccccc1)C(=O)N1CCC[C@H]1C(=O)N[C@@H](C)C(=O)N[C@@H](CC(=O)O)C(=O)N[C@@H](CC(C)C)C(=O)N[C@@H](Cc1c[nH]c2ccccc12)C(=O)N[C@@H](CC(N)=O)C(=O)N[C@@H](Cc1c[nH]c2ccccc12)C(=O)N[C@H](C(=O)N[C@@H](CCCNC(=N)N)C(=O)N[C@@H](CCCNC(=N)N)C(N)=O)C(C)C)C(C)C [SEQ ID NO: 133] (Ac-VHFQFPADLWNWVRR-NH2)
Resp: > 6.30
